# Assayed system: SARS-CoV-2 spike receptor-binding domain, Delta variant (amino acids 331-529), biotinylated (SARS-CoV-2, Delta, L452R | T478K, biotin (RBD expression vector co-expressed with BirA-Flag, 100 μM biotin added))
# Method summary: BLI
# Reported conditions: both partners purified
Consider the following binders; for each one, report its kon.
Give bare numbers, in M⁻¹ s⁻¹.

Recorded kon, per entry:
# Binder, kon (M⁻¹ s⁻¹)
rows = [
    ("NIV-13 Fab (Fab, V domains shown) VH: EVQLLESGGGLVQPGGSLRLSCAASGFTFSRYALSWVRQAPGKGLEWVSAISGAAITTYYADSVKGRFTISRDDSRNTLFMQMDSLRAEDTAVYYCAKGDYYDSSGYLAEYFPHWGQGTLVTVSS VL: SYELTQPPSVSVSPGQTARITCFADALPKQHAYWYQQKAGQAPVLVIFKDTERPSGIPKRFSGSRSGATVTLTISGVQAEDEADYYCQSTDISGVLFGGGTKLTVL", 405000),
    ("NIV-11 Fab (Fab, V domains shown) VH: QLVQSGPEVKKPGTSVKVSCKASGFTFYYSAVQWVRQARGQRLEWLGWMAVGSGKANYAQKFQERLTLTRDMSTSTAYMELSSLRSEDTAVYYCAAPNCTGGSCYDGFNLWGQGTVVTVSS VL: EIVLTQSPGTLSLSPGDRAILSCRASQTVNSNYLAWYQQKPGQAPRLLIYGTSSRATGIPDRFSGSGSGTDFTLTISRLEPEDFAVYYCQQYGSSPWLFGQGTKVEIK", 106000),
]

# next binder below
Reported kon ( NIV-8 Fab (Fab, V domains shown) VH: EVQLVESGGGVVQPGRSLRLSCAASGFKFSKFAMHWVRQAPGKGPEWVAVISYDGNQYHSADSVKGRFTISRDNSFNTLYLQMNSLGPEDTAVYYCARDGPDTSGYYANIYFDFWGQGTLVTVSS VL: QSVLTQPPSVSGAPGQRVTISCTGSSSNIGAGYDVHWYQQLPGRAPKLLIFDNNNRPSGVPDRFSGSKSGTSASLAITGLQTEDEAYYYCQSYDNSLILAVFGGGTKVTVL ) = 269000
